- System: SK-MEL-5 melanoma
- TEST_NAME: NCI-60 one-dose screen, 48 h (100 = growth as untreated, 0 = no growth, -100 = all killed)
- CONDITION_SUMMARY: 10 µM unless noted
This is part of a sample that, as a whole, favours compounds with a hit. Of some 83,000 tested, about 20% had one in any assay.
QUANTITY: growth (%)
Respond with the bare value in %.

Reported growth ( CCN1CCN(S(=O)(=O)c2oc(-c3ccc(Cl)cc3)nc2C#N)CC1 ) = 95.2

Reported growth ( COc1ccc(/C=C2\SC(=Nc3cc(C)[nH]n3)NC2=O)cc1 ) = 95.7

Reported growth ( Nc1cc(-c2c[nH]c3ccc(Cl)cc23)nc2cc(-c3c[nH]c4ccc(Cl)cc34)nn12 ) = 70.9

Reported growth ( CCN1C(=S)N(CC)C2C1N=C(SC)N2/N=C/C=C/c1ccccc1[N+](=O)[O-] (stereo not given) ) = 96.2

Reported growth ( COc1ccc(-c2nc3ccc(-c4nnc(SCC(=O)Nc5ccc(C(=O)/C=C/c6ccc(Cl)cc6)cc5)o4)cc3[nH]2)cc1OC ) = 97.6

----------
- Test system: HS 578T breast
- TEST_NAME: NCI-60 one-dose screen, 48 h (100 = growth as untreated, 0 = no growth, -100 = all killed)
- CONDITION_SUMMARY: 10 µM unless noted
- Description: Growth inhibition of the HS 578T human tumor cell line is measured as a screen for anti-cancer activity. Cells are grown in 96 well plates and exposed to the test compound for 48 hours. Compounds are tested at a single concentration, which is 10^-5 M for most compounds. The reported endpoint is percent growth (GI% or GIPRCNT), where numbers from 0 - 100% represent growth inhibition, and numbers from -100% - 0 represent cell death. For example, a value of 40 represents 60% growth inhibition. […]
This is part of a sample that, as a whole, favours compounds with a hit. Of some 83,000 tested, about 20% had one in any assay.
Please go through the items and note down their growth.
Respond with the bare value in %.

Reported growth ( Cc1ccc(-c2nc(C(Cl)Cl)nc3cc(-c4ccccc4)nn23)cc1 ) = 1.87

Reported growth ( CN1C(=S)N(C)C2C1NN=C1SC(c3ccccc3)=CC(=O)N12 (centres undefined) ) = 107

Reported growth ( CC(C)NC(=O)c1cc(-c2ccc(NC(=O)Nc3ccc(N4CCOCC4)c(C(F)(F)F)c3)cc2)nc2cccnc12 ) = 9.42

Reported growth ( O=C(O)CCCCCN1C(=O)/C(=C/c2ccc(O)c(O)c2)SC1=S ) = 99.6

Reported growth ( N#Cc1c(-c2ccc(Cl)cc2)nc2c(-c3ccccc3)c(Nc3ccccc3)nn2c1N ) = 37.3

Reported growth ( CCOC(=O)c1c(NC(=O)c2cccc(C(F)(F)F)c2)sc2cc(O)ccc12 ) = 88.1

Reported growth ( N=C1CC(=O)NN1C(=O)CSc1nc2sc3c(c2c(=O)n1-c1ccc(Cl)cc1)CCCC3 ) = 94.5

Reported growth ( CN(C)c1ccc(/C=C2\Cc3c(F)ccc(Br)c3C2=O)cc1 ) = 92.2

Reported growth ( COc1cc(OC)c(S(=O)(=O)NNC(=O)c2ccncc2)cc1C(=O)/C=C/c1ccc(C)cc1 ) = 80.5

Reported growth ( Cc1cc(C(NC(=O)CCCCCNc2cccc3c2C(=O)N(C2CCC(=O)NC2=O)C3=O)c2cccnc2)c(O)c2ncccc12 (centres undefined) ) = 1.22

Reported growth ( c1ccc2c(NCCCN3CCOCC3)c3oc4ccccc4c3nc2c1 ) = 5.28

Reported growth ( COc1cc(OC)c(C2C(Cl)C(=O)N2Nc2ncnc3ccccc23)cc1OC (centres undefined) ) = 107

Reported growth ( CCN1C(=S)N(c2ccccc2)C2NC(=O)N(/N=C/C=C/c3ccccc3OC)C21 (centres undefined) ) = 78.7

Reported growth ( O=C1c2c(c3c4cc(Br)ccc4[nH]c3c3ccc4ccccc4c23)C(=O)N1CCO ) = 103

Reported growth ( N#Cc1c(-c2ccc(Cl)cc2)nc(SCc2ccc([N+](=O)[O-])cc2)nc1N1CCNCC1 ) = 52.1

Reported growth ( CCCCCCNC(=O)Oc1ccc(/C(=C(/C)c2ccccc2)c2ccc(OCCN3CCCCCC3)cc2)cc1 ) = 51.4

Reported growth ( OC1CCN(CCCOc2c3ccccc3nc3c2oc2ccc(Cl)cc23)CC1 ) = 32

Reported growth ( CC(C)(C)OC(=O)N1C(=O)c2c(c3c4ccccc4[nH]c3c3ccc4ccccc4c23)C1=O ) = 49.7

Reported growth ( COc1ccc(-c2nc3ccc(-c4nnc(SCC(=O)Nc5ccc(C(=O)/C=C/c6ccccc6)cc5)o4)cc3[nH]2)cc1OC ) = 96.1
